Data origin, for the record: ChEMBL document CHEMBL4431339

# assayedSystem: Virion infectivity factor (Human immunodeficiency virus type 1 group M subtype B (isolate NY5)(HIV-1)) (UniProt P12504)
# Sequence (P12504 whole entry): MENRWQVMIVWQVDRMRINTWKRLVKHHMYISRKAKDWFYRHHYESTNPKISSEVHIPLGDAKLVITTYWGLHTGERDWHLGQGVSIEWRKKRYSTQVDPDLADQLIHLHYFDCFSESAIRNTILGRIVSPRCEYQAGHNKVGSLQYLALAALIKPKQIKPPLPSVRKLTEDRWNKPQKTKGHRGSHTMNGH
# measurementProtocol: Antagonist activity against HIV-1 Vif in human MT4 cells assessed as inhibition of viral infection at 50 uM measured after 16 hrs by cell-based assay
# assayConditions: Human immunodeficiency virus 1
The source made the active and inactive calls.
readout: Activity

Use the examples below as a reference point.
[
  {
    "structureSmilesString": "COC(=O)c1ccc(S(=O)(=O)c2ccccc2-c2cn(-c3cccc(OC)c3OC)nn2)cc1",
    "valueMeasured": "inactive"
  },
  {
    "structureSmilesString": "COc1ccc(Sc2ccccc2-c2cn(-c3cc(OC)ccc3OC)nn2)cc1",
    "valueMeasured": "inactive"
  },
  {
    "structureSmilesString": "COc1ccc(-n2cc(-c3ccccc3Sc3ccc([N+](=O)[O-])cc3)nn2)c(OC)c1",
    "valueMeasured": "inactive"
  },
  {
    "structureSmilesString": "COc1cccc(OC)c1-n1cc(-c2ccccc2Sc2ccc([N+](=O)[O-])cc2)nn1",
    "valueMeasured": "inactive"
  }
]

Attention now shifts to the item below.
Memo: `COc1ccc(-n2cc(-c3ccccc3Sc3ccc(N)cc3)nn2)c(OC)c1` , reported Activity: inactive
